- experiment: binders from COS7 lysate, DM2A8 probe, primary screen, torsin A project, cell lysate, small-molecule microarray, fluorescence 635/667 (AID 1065)
- conditionSummary: higher = more signal, COS7 lysate expressing mutant human TOR1A
Kindly return yes if reported composite z-score is no lower than 0.4; return no if it is lower.

compound | className
CC(=O)NCCCC[C@@H]1NC(=O)[C@H]2C[C@@H](C(=O)NCCCCCNC(=O)CS)[C@@H](c3cccc(OCCO)c3)N2C1=O | yes
O=C1C2C=CC(C(O)c3cc(C(F)(F)F)cc(C(F)(F)F)c3)N(Nc3ccccc3F)C2C(=O)N1c1ccccc1 (centres undefined) | yes
NC(=O)[C@H]1[C@@H]2C(=O)O[C@@H](c3ccccc3)[C@@H](c3ccccc3)N2[C@@H](c2ccc(O)cc2)[C@]12C(=O)Nc1ccccc12 | no
COC(=O)[C@@]1(Cc2ccccc2CN=[N+]=[N-])N=C(c2ccc(OCCCO)cc2)O[C@H]1c1ccccc1CN=[N+]=[N-] | no
C=CCNC(=O)[C@H]1[C@@H]2C(=O)O[C@@H](c3ccccc3)[C@@H](c3ccccc3)N2[C@@H](c2ccc(O)cc2)[C@]12C(=O)N(C(=O)OCCOC)c1ccc(C#CCC(C(=O)OC)C(=O)OC)cc12 | yes
CCOC(=O)C1=C[C@@H](C(C)(C)C)N(S(=O)(=O)c2ccc(C)cc2)[C@H]1c1ccccc1 | yes
[N-]=[N+]=Nc1ccccc1C[C@@]1(C(=O)O)N=C(c2ccc(OCCCO)cc2)O[C@@H]1c1ccccc1N=[N+]=[N-] | no
C=CCC(OC(C)=O)[C@@H]1[C@@H](N(Cc2ccc(-c3cccc(C(F)(F)F)c3)o2)C(=O)c2cccc3ccccc23)c2cc(OCCCO)ccc2N1C(=O)Cc1ccc(OC)cc1 (some centres undefined) | no
C=C(COC)/C(=C/C[C@@H](OC(=O)c1ccncc1)c1ccccc1OCCO)c1cc(C(=O)OC)ccc1OC | no
O=C1OCCC/C=C\[C@H]2OC34C=CCN(c5ccc6ccccc6c5)C(=O)[C@H]3N(CCCO)C(=O)[C@@H]4C12 (some centres undefined) | yes
CC(C)[C@H]1NC(=O)[C@@]23C(=O)N[C@@H](Cc4ccccc4)C2[C@H](C)[C@@]2(C)O[C@H]2C3/C=C/C/C=C\CNC(=O)[C@H](Cc2ccccc2)NC1=O (some centres undefined) | yes
COC(=O)[C@@]1(Cc2ccc(OC)cc2)[C@H]2c3cc(C(=O)N4CCCC4)n(Cc4ccc(OC(F)(F)F)cc4)c3C[C@H]2CN1C(=O)c1ccccc1 | no
C=C[C@@H](OC)[C@H](OC(=O)Nc1ccc(SC)cc1)c1ccc(OCCO)cc1 | no
COC(=O)[C@@]1(Cc2ccccc2)[C@H]2c3cc(C(=O)N4CCCC4)n(CCSCCO)c3C[C@H]2CN1C(=O)c1ccccc1 | yes

###

- experiment: S. cerevisiae growth modulation with rapamycin, primary screen, strain BY4716, OD600, 96 h (AID 1091); further: test concentration not given here
- conditionSummary: higher = more signal, called active from +8 up or from −8 down
Where z-score equals or exceeds 0.4, the correct label is 1; where it does not, the label is -1.

molecule | className
COCCOC(=O)N1C(=O)[C@@]2(c3cc(C#CCNC(N)=O)ccc31)[C@H](c1ccc(O)cc1)N1[C@H](c3ccccc3)[C@H](c3ccccc3)OC(=O)[C@H]1[C@@H]2C(N)=O | -1
CCCCC(=O)N(CCN1CCOCC1)[C@@H]1CC(C(=O)NCCO)=C[C@H](Oc2c(I)cc(CO)cc2OC)[C@H]1O | -1
[N-]=[N+]=NCc1ccccc1[C@@H]1OC(c2ccc(OCCCO)cc2)=N[C@]1(Cc1ccccc1)C(=O)NCCN1CCOCC1 | 1
CC1CC/C=C\[C@H]2OC34C=CCN(CCN5CCOCC5)C(=O)[C@H]3N(C(C)CO)C(=O)[C@@H]4C2C(=O)O1 (some centres not stated) | -1
CCCCNC(=O)c1ccc(C#C[Si](C(C)C)(C(C)C)C(C)C)c(OC(C)=O)c1 | 1
C[C@]1(C(=O)NCC(F)(F)F)c2ccccc2C(=O)N(Cc2ccccc2)[C@H]1c1ccc(CO)cc1 | -1
